Where do the numbers come from? From patent US5318964A.

molecular target: collagenase obtained from a culture of human synovial fibroblasts (Homo sapiens, UniProt P03956); construct: endogenous in cells; assay: in vitro collagenase inhibiting activity (14C-acetylated collagen type I from rat tail tendons as substrate, microtitre plate assay); settings: trypsin-activated collagenase from human synovial fibroblasts; 14C-acetylated collagen type I (rat tail tendons) substrate; concentration reducing substrate cleavage and solubilization to 50% of enzyme alone
Sequence (P03956 100-469): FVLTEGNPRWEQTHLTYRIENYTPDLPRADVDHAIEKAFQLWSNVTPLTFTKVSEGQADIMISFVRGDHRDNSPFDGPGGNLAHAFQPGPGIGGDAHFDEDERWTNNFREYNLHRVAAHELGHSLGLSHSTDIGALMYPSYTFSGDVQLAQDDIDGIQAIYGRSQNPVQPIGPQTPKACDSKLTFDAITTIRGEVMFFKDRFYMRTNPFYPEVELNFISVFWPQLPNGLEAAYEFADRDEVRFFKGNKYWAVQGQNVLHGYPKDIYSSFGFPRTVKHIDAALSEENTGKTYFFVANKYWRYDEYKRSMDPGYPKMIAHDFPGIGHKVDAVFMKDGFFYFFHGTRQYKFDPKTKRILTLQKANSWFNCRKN
pIC50: −log10 of the molar value.
METRIC NAME: pIC50

Would you please look over these solved cases?
# COMPOUND, ASSAY VALUE
rows = [
    ("CC(C)C[C@@H](C(=O)N1CCOCC1)C(CN1C(=O)c2ccccc2C1=O)C(=O)NO (single isomer, unassigned) [Compound A]", 8.00),
    ("CC(C)C[C@@H](C(=O)N1CCC(O)CC1)C(CN1C(=O)N(C)C(C)(C)C1=O)C(=O)NO (single isomer, unassigned) [Compound G]", 8.16),
    ("CC(C)C[C@@H](C(=O)N1CCSCC1)C(CN1C(=O)CN(C)C1=O)C(=O)NO (single isomer, unassigned) [Compound E]", 8.15),
    ("CC(C)C[C@@H](C(=O)N1CCC(O)CC1)C(CN1C(=O)c2ccccc2C1=O)C(=O)NO (single isomer, unassigned) [Compound C]", 8.30),
]

a = CNC(=O)[C@@H]1CCCNN1C(=O)[C@H](CC(C)C)C(CN1C(=O)c2ccccc2C1=O)C(=O)NO (single isomer, unassigned) [Compound F]
b = CC(C)C[C@@H](C(=O)N1CCSCC1)C(CN1C(=O)c2ccccc2C1=O)C(=O)NO (single isomer, unassigned) [Compound B]
c = CC(C)C[C@@H](C(=O)N1CCCCC1)C(Cn1c(=O)n(C)n(C)c1=O)C(=O)NO (single isomer, unassigned) [Compound D]
Input line: Rank order required: pIC50, descending. Please write the labels in the order that was asked for.
Output line: a, b, c
